IC90 listing for selected compounds.
system: M. tuberculosis H37Rv growth inhibition; experiment: Mycobacterium tuberculosis H37Rv growth inhibition, putative kinase inhibitor library, confirmatory dose response (AID 2842);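 further: bacteria incubated one week before Alamar blue readout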

// below: answered compounds
COc1cc(C2C3=C(CC(C)(C)CC3=O)Nc3ncnn32)ccc1OCc1ccc(Cl)c(Cl)c1 (stereo unspecified) : 6.77 mg/L
Cc1ccc(C)c(-c2nnc(NC(=O)c3ccccc3Cl)o2)c1 : 3.12 mg/L
O=C(OCn1nnc2ccccc2c1=O)c1ccco1 : 4.76 mg/L
Cc1cc(C)c2nc(C(F)(F)F)nc(NC(C)CCc3ccccc3)c2c1 (stereo unspecified) : 7.61 mg/L
Cc1c(C#N)c(N)nc(SCC(=O)c2cc3ccccc3oc2=O)c1C#N : 0.42 mg/L
c1csc(Nc2nc3cc4c(cc3s2)OCO4)n1 : 8.57 mg/L
Fc1cccc2sc(Nc3nnc(-c4ccco4)o3)nc12 : 2.08 mg/L
Cc1ccc(-c2nnc(NC(=O)c3ccco3)o2)c(C)c1 : 4.51 mg/L
Fc1cccc2sc(Nc3nc(-c4cccs4)cs3)nc12 : 25.4 mg/L
NC(=O)C1CCN(C2=NC(=O)/C(=C\c3ccc(Cl)cc3Cl)S2)CC1 : < 0.2 mg/L

Fill in the blank: the reported IC90 of Cc1cccc(C(=O)Nc2nnc(-c3cccnc3)o2)c1 is ____.
8.87 mg/L

How about Cc1ccc2[nH]c(=O)c(C3=NN(C(=O)c4ccco4)C(c4ccco4)C3)c(-c3ccccc3)c2c1 (stereo unspecified) ?
15.4 mg/L

How about COc1cccc(C(=O)Nc2nc(-c3cccs3)cs2)c1 ?
19.5 mg/L

How about O=C(Nc1nnc(-c2ccccc2)o1)c1ccc2c(c1)CCCC2 ?
15.5 mg/L

How about COC(=O)c1c(NC(=O)C(c2ccccc2)c2ccccc2)sc2c1CC(C)(C)NC2(C)C ?
6.07 mg/L

How about CCOC(=O)COc1cccc(/C=C2\Oc3cc(OC)ccc3C2=O)c1 ?
3.52 mg/L

###

system: M. tuberculosis H37Rv growth inhibition; assay: Mycobacterium tuberculosis H37Rv growth inhibition, putative kinase inhibitor library, confirmatory dose response (AID 2842);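 further: bacteria incubated one week before Alamar blue readout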
IC90 listing for selected molecules.

CN(C)c1ccc(Nc2nncc(=O)[nH]2)cc1 : 8.05 µg/mL

Fill in the blank: the reported IC90 of Fc1ccc(N2CCN(c3nc(Nc4ccccc4)c4nccnc4n3)CC2)cc1 is ____.
1.69 µg/mL

How about CCOc1cc(-c2nnc(NC(=O)C3=COCCO3)o2)cc(OCC)c1OCC ?
7 µg/mL

How about COc1ccc2nc(Nc3nc4c(F)cccc4s3)sc2c1 ?
23.4 µg/mL

###

test system: M. tuberculosis H37Rv growth inhibition; assay: Mycobacterium tuberculosis H37Rv growth inhibition, putative kinase inhibitor library, confirmatory dose response (AID 2842);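 further: bacteria incubated one week before Alamar blue readout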
IC90 listing for selected compounds.

// below: answered compounds
CC1(C)Cc2c(sc(NC(=O)c3ccc(Oc4ccccc4)cc3)c2C(N)=O)C(C)(C)N1 : 6.22 µg/mL
O=C(Cc1cccc2ccccc12)Nc1nnc(-c2ccco2)o1 : 6.89 µg/mL
O=C(Nc1cccc(Br)c1)c1ccc([N+](=O)[O-])s1 : < 0.2 µg/mL

Then there is this compound:
Fill in the blank: the reported IC90 of CCc1cccc2sc(N(CCCn3ccnc3)C(=O)c3ccc(OC)c(OC)c3)nc12 is ____.
13.9 µg/mL
